- measurement conditions: in isopropanol, 293.15 K

line notation: COc1cc(C(=O)O)cc(OC)c1O
solubility (mole fraction): 0.00545

====

- measurement conditions: in n-hexanol, 293.15 K

line notation: COc1cc(C(=O)O)cc(OC)c1O
solubility (mole fraction): 0.0033

====

- measurement conditions: in n-hexanol, 298.15 K

line notation: COc1cc(C(=O)O)cc(OC)c1O
solubility (mole fraction): 0.0042

====

- measurement conditions: in ethylene glycol, 323.15 K

line notation: COc1cc(C(=O)O)cc(OC)c1O
solubility (mole fraction): 0.0269

====

- measurement conditions: in ethanol, 303.15 K

line notation: COc1cc(C(=O)O)cc(OC)c1O
solubility (mole fraction): 0.0188

The measured values listed here are drawn from BigSolDB 2.1.
